The measured values listed here are drawn from patent US20180051081A1.

target: T1, human CD47 (human, UniProt Q08722 19-323); assay: FACS, human RBCs, supernatant 10 ng/ml
T1 construct: whole, on cells; also called CD47 on human RBCs; CD47 on OV10 cells
T1 sequence (Q08722 19-323): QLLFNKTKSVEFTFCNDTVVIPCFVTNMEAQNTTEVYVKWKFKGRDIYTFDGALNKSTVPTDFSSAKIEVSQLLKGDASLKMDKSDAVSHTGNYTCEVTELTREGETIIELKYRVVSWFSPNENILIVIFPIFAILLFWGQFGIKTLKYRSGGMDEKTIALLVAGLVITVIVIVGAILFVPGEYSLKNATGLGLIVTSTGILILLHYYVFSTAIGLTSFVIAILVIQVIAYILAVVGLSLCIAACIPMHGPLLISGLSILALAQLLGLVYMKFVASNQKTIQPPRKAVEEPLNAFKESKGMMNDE
experimental.readout: mean fluorescence relative to chimera

binder | result
Clone 10 (pVxK7b-037-hum10-LC / pVxK7b-037-hum10-HC) (antibody, human IgG1, kappa, V domains shown) VH: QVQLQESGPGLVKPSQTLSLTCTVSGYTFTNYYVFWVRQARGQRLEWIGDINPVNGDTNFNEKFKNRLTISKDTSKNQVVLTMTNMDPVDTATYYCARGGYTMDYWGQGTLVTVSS VL: DIVMTQTPLSLPVTPGEPASISCRSSQSLVHSNGNTYLHWYLQKPGQSPQLLIYKVSYRFSGVPDRFSGSGSGTDFTLKISRVEAEDVGVYYCSQNTHVPRTFGQGTKVEIKR | 1.1
